target: HLA-A02.01 (Homo sapiens, UniProt P04439, D140Y/D185E/D98H/E176V/E277Q/G131W/G231S/I119V/I121R/I166T/I218V/L300P/L318F/N151K/N90K/P208A/P217A/Q86G/Q94H/R138H/R169H/T345S); assay: Class I MHC peptide binding affinity (displacement of radiolabeled reference peptide); details: allele A02.01; read-out: Observed Affinity (IC50; (nM))
Where a SMILES comes first, the peptide text is derived from it.
measure-name: IC50 (nM)
The reply should contain only the number, in nM.

CSCC[C@H](NC(=O)[C@H](CCC(=O)O)NC(=O)[C@H](CC(C)C)NC(=O)[C@H](CC(C)C)NC(=O)[C@H](CC(C)C)NC(=O)CNC(=O)[C@H](Cc1ccc(O)cc1)NC(=O)[C@H](CC(C)C)NC(=O)[C@@H]1CCCN1)C(=O)O (H-PLYGLLLEM-OH; N-terminus and C-terminus assumed) : 640

Problem: What IC50 value was documented for this compound, CSCC[C@H](NC(=O)[C@H](CCCCN)NC(=O)CNC(=O)[C@H](CC(N)=O)NC(=O)[C@H](CCC(N)=O)NC(=O)[C@@H](N)Cc1ccccc1)C(=O)N[C@@H](C)C(=O)N[C@@H](CC(C)C)C(=O)N[C@@H](CO)C(=O)O [FQNGKMALS] (H-FQNGKMALS-OH; N-terminus and C-terminus assumed) ?
Solution: 3280

###

target: HLA-A03.01 (Homo sapiens); test: Class I MHC peptide binding affinity (displacement of radiolabeled reference peptide); conditions: allele A03.01; read-out: Observed Affinity (IC50; (nM))
Where a SMILES comes first, the peptide text is derived from it.
measure-name: IC50 (nM)
The reply should contain only the number, in nM.

C[C@@H](O)[C@H](NC(=O)[C@H](CCC(=O)O)NC(=O)[C@H](CCCCN)NC(=O)[C@H](CCCCN)NC(=O)[C@H](CCCCN)NC(=O)[C@H](CO)NC(=O)[C@@H](N)CCCCN)C(=O)N[C@@H](Cc1ccccc1)C(=O)N[C@@H](CCCCN)C(=O)N[C@@H](CCCCN)C(=O)O (H-KSKKKETFKK-OH; N-terminus and C-terminus assumed) : 39.6
CC[C@H](C)[C@H](NC(=O)[C@H](Cc1c[nH]c2ccccc12)NC(=O)[C@H](CS)NC(=O)[C@H](Cc1ccccc1)NC(=O)[C@H](Cc1ccccc1)NC(=O)[C@@H](N)Cc1ccccc1)C(=O)N[C@@H](CC(C)C)C(=O)N[C@@H](CO)C(=O)N[C@@H](CS)C(=O)N[C@@H](CCCCN)C(=O)O (H-FFFCWILSCK-OH; N-terminus and C-terminus assumed) : 597
CC[C@H](C)[C@H](NC(=O)[C@@H](N)CCCCN)C(=O)N[C@@H](CO)C(=O)N[C@@H](CC(N)=O)C(=O)N[C@@H](Cc1c[nH]c2ccccc12)C(=O)N[C@@H](CO)C(=O)N[C@@H](CC(C)C)C(=O)N[C@@H](CCCCN)C(=O)N[C@@H](CCCCN)C(=O)N[C@H](C(=O)O)C(C)C (H-KISNWSLKKV-OH; N-terminus and C-terminus assumed) : 115
CC(C)C[C@H](NC(=O)[C@H](C)NC(=O)[C@@H]1CCCN1C(=O)[C@@H](NC(=O)[C@H](CCCCN)NC(=O)[C@H](CCCCN)NC(=O)[C@H](CC(C)C)NC(=O)[C@H](CO)NC(=O)[C@@H](N)Cc1c[nH]c2ccccc12)C(C)C)C(=O)N[C@@H](CCCCN)C(=O)O (H-WSLKKVPALK-OH; N-terminus and C-terminus assumed) : 94.9
CSCC[C@H](NC(=O)[C@H](C)NC(=O)[C@@H](N)CO)C(=O)N[C@H](C(=O)N[C@H](C(=O)N[C@@H](CO)C(=O)N[C@@H](CO)C(=O)N[C@@H](CO)C(=O)N[C@@H](CCC(N)=O)C(=O)N[C@@H](CCCCN)C(=O)O)[C@@H](C)O)[C@@H](C)O (H-SAMTTSSSQK-OH; N-terminus and C-terminus assumed) : 15.7

Problem: What IC50 value was documented for this compound, CC(C)C[C@H](NC(=O)[C@H](C)NC(=O)[C@@H]1CCCN1C(=O)[C@@H](NC(=O)[C@H](CCCCN)NC(=O)[C@H](CCCCN)NC(=O)[C@H](CC(C)C)NC(=O)[C@@H](N)CO)C(C)C)C(=O)N[C@@H](CCCCN)C(=O)N[C@@H](CCCCN)C(=O)O (H-SLKKVPALKK-OH; N-terminus and C-terminus assumed) ?
Solution: 9.6

Problem: Similarly, CSCC[C@H](NC(=O)[C@@H](N)CCCCN)C(=O)N[C@@H](CCCNC(=N)N)C(=O)N[C@@H](CCCCN)C(=O)N[C@@H](CCCCN)C(=O)N[C@@H](Cc1ccc(O)cc1)C(=O)N[C@@H](C)C(=O)N[C@@H](CCC(N)=O)C(=O)N[C@@H](CCCCN)C(=O)O (H-KMRKKYAQK-OH; N-terminus and C-terminus assumed) ?
Solution: 5.7

Problem: Similarly, CC(C)C[C@H](NC(=O)[C@@H](NC(=O)[C@@H](NC(=O)[C@@H](N)CS)[C@@H](C)O)[C@@H](C)O)C(=O)N[C@@H](CC(N)=O)C(=O)N[C@@H](CO)C(=O)N1CCC[C@H]1C(=O)N1CCC[C@H]1C(=O)N[C@@H](CC(C)C)C(=O)N[C@@H](CCCCN)C(=O)O (H-CTTLNSPPLK-OH; N-terminus and C-terminus assumed) ?
Solution: 63.6

Problem: Similarly, C[C@@H](O)[C@H](NC(=O)[C@H](CCC(=O)O)NC(=O)[C@H](CCCCN)NC(=O)[C@H](CCCCN)NC(=O)[C@H](CCCCN)NC(=O)[C@H](CO)NC(=O)[C@@H](N)CCCCN)C(=O)N[C@@H](Cc1ccccc1)C(=O)N[C@@H](CCCCN)C(=O)O (H-KSKKKETFK-OH; N-terminus and C-terminus assumed) ?
Solution: 74.3

Problem: Similarly, "CC[C@H](C)[C@H](NC(=O)[C@H](C)NC(=O)[C@H](CS)NC(=O)[C@@H](NC(=O)[C@@H](N)Cc1ccc(O)cc1)[C@@H](C)O)C(=O)N[C@H](C(=O)N[C@H](C(=O)N[C@H](C(=O)N[C@@H](CCCCN)C(=O)O)C(C)C)[C@@H](C)O)[C@@H](C)O" ?
Solution: 122

Problem: Similarly, CC(C)[C@H](NC(=O)[C@@H](N)CCCCN)C(=O)N[C@@H](CO)C(=O)N[C@@H](CCCNC(=N)N)C(=O)N[C@@H](CCC(=O)O)C(=O)N[C@@H](CC(N)=O)C(=O)N[C@H](C(=O)N[C@@H](CO)C(=O)N1CCC[C@H]1C(=O)N[C@@H](CCCCN)C(=O)O)[C@@H](C)O (H-KVSRENTSPK-OH; N-terminus and C-terminus assumed) ?
Solution: 7

Problem: Similarly, CC[C@H](C)[C@H](NC(=O)[C@@H](N)CCCCN)C(=O)N[C@@H](CO)C(=O)N[C@@H](CC(N)=O)C(=O)N[C@@H](Cc1c[nH]c2ccccc12)C(=O)N[C@@H](CO)C(=O)N[C@@H](CC(C)C)C(=O)N[C@@H](CCCCN)C(=O)N[C@@H](CCCCN)C(=O)O (H-KISNWSLKK-OH; N-terminus and C-terminus assumed) ?
Solution: 8.8

###

target: HLA-A24.02; assay: Class I MHC peptide binding affinity (displacement of radiolabeled reference peptide); set-up: species or system human; conditions: allele A24.02; read-out: Observed Affinity (IC50; (nM))
Where a SMILES comes first, the peptide text is derived from it.
measure-name: IC50 (nM)
The reply should contain only the number, in nM.

The following compounds have reported results that may help.
CC[C@H](C)[C@H](NC(=O)[C@H](CO)NC(=O)[C@H](Cc1c[nH]c2ccccc12)NC(=O)[C@H](Cc1c[nH]cn1)NC(=O)[C@H](C)NC(=O)[C@@H]1CCCN1C(=O)[C@H](CCSC)NC(=O)[C@H](CC(C)C)NC(=O)[C@@H](N)CO)C(=O)O : 633
CSCC[C@H](NC(=O)[C@H](CCC(=O)O)NC(=O)[C@H](CC(C)C)NC(=O)[C@H](CC(C)C)NC(=O)[C@H](CC(C)C)NC(=O)CNC(=O)[C@H](Cc1ccc(O)cc1)NC(=O)[C@@H](N)CC(C)C)C(=O)N[C@@H](CC(C)C)C(=O)O (H-LYGLLLEML-OH; N-terminus and C-terminus assumed) : 0.8

Next item in the queue.
Problem: What IC50 value was documented for this compound, "CC[C@H](C)[C@H](NC(=O)[C@@H](NC(=O)[C@H](CC(C)C)NC(=O)[C@@H](NC(=O)[C@@H]1CCCN1C(=O)[C@H](CCCNC(=N)N)NC(=O)[C@H](CCCNC(=N)N)NC(=O)[C@H](CC(N)=O)NC(=O)[C@H](CCSC)NC(=O)[C@@H](N)CO)[C@@H](C)CC)[C@@H](C)O)C(=O)O" ?
Solution: 16300
